Just for reference, patent US6054435A is where these values come from.

Entries with their measured MIC, system Streptococcus pyogenes PIU 2548:
Numbers only, in µg/mL.

Field: example entries. Status: answers known.
compoundSmiles	measuredParameter	measuredValue
CC[C@H]1OC(=O)[C@H](C)C(=O)[C@H](C)[C@@H](O[C@@H]2O[C@H](C)C[C@H](N(C)C)[C@H]2O)[C@](C)(OC/C=C/c2cncc(-c3ccco3)c2)C[C@@H](C)C(=O)[C@H](C)[C@H]2NC(=O)O[C@@]21C	MIC	0.1
CC[C@H]1OC(=O)[C@H](C)C(=O)[C@H](C)[C@@H](O[C@@H]2O[C@H](C)C[C@H](N(C)C)[C@H]2O)[C@](C)(OCC#Cc2ccc(-c3ccccc3)s2)C[C@@H](C)C(=O)[C@H](C)[C@H]2NC(=O)O[C@@]21C	MIC	0.39
CC[C@H]1OC(=O)[C@H](C)C(=O)[C@H](C)[C@@H](O[C@@H]2O[C@H](C)C[C@H](N(C)C)[C@H]2O)[C@](C)(OC/C=C/c2cncc(-c3nccs3)c2)C[C@@H](C)C(=O)[C@H](C)[C@H]2NC(=O)O[C@@]21C	MIC	0.2
CC[C@H]1OC(=O)[C@H](C)C(=O)[C@H](C)[C@@H](O[C@@H]2O[C@H](C)C[C@H](N(C)C)[C@H]2O)[C@](C)(OC/C=C/c2cnc(-c3cncnc3)s2)C[C@@H](C)C(=O)[C@H](C)[C@H]2NC(=O)O[C@@]21C	MIC	0.2
CC[C@H]1OC(=O)[C@H](C)C(=O)[C@H](C)[C@@H](O[C@@H]2O[C@H](C)C[C@H](N(C)C)[C@H]2O)[C@](C)(OCC#Cc2ccc(-c3ccco3)s2)C[C@@H](C)C(=O)[C@H](C)[C@H]2NC(=O)O[C@@]21C	MIC	0.1
CC[C@H]1OC(=O)[C@H](C)C(=O)[C@H](C)[C@@H](O[C@@H]2O[C@H](C)C[C@H](N(C)C)[C@H]2O)[C@](C)(OC/C=C/c2cncc(-c3cccnc3)c2)C[C@@H](C)C(=O)[C@H](C)[C@H]2NC(=O)O[C@@]21C	MIC	0.2

Need MIC for each of these molecules.
1. CC[C@H]1OC(=O)[C@H](C)C(=O)[C@H](C)[C@@H](O[C@@H]2O[C@H](C)C[C@H](N(C)C)[C@H]2O)[C@](C)(OC/C=C/c2nc(-c3cccs3)cs2)C[C@@H](C)C(=O)[C@H](C)[C@H]2NC(=O)O[C@@]21C
2. CC[C@H]1OC(=O)[C@H](C)C(=O)[C@H](C)[C@@H](O[C@@H]2O[C@H](C)C[C@H](N(C)C)[C@H]2O)[C@](C)(OCC#Cc2ccc(-c3cncc(C(=O)N(C)C)c3)s2)C[C@@H](C)C(=O)[C@H](C)[C@H]2NC(=O)O[C@@]21C

Marked response:
0.1
0.39
